Measurement Description: Selectivity index, ratio of CC50 for human A549 cells to IC50 for group 2 influenza A H7N1 pseudotyped virus infected in A549 cells
Format: toxicity, cell-based
Condition Context: read-out: Ratio CC50/IC50
Field: selectivity ratio. Provide a value for each of the compounds that follow.
Answers are plain numbers.

Respectfully, I request selectivity ratio for each entry included below.
1. Fc1ccc(COc2ccc(-c3nc4ncccn4c3NC3CCCCC3)cc2)cc1
2. CCCCOc1ccc(-c2c(NC(C)(C)CC(C)(C)C)nc3ncccn23)cc1
3. Brc1ccc(-c2nc3ncccn3c2NC2CCCCC2)c(CN2CCOCC2)c1
4. CCCCOc1ccc(-c2nc3ncccn3c2NC2CCCCC2)cc1

[92, 6, 5, 78]

----------
Measurement Description: Selectivity index, ratio of CC50 for human A549 cells to IC50 for group 2 influenza A H7N1 pseudotyped virus infected in A549 cells
Assay type: toxicity, cell-based
Condition Context: read-out: Ratio CC50/IC50
In plain terms, low selectivity ratio, meaning strictly below 20, gives true, and everything else gives false.

Field: below-cutoff. Rule: recorded selectivity ratio strictly less than 20. Subject: Cc1cc(C)n2c(NC3CCCCC3)c(-c3ccc(Br)cc3)nc2n1
false

Field: below-cutoff. Rule: recorded selectivity ratio strictly less than 20. Subject: CC(C)(C)CC(C)(C)Nc1c(-c2ccc(Br)cc2)nc2ncccn12
false

Field: below-cutoff. Rule: recorded selectivity ratio strictly less than 20. Subject: COCCOc1ccc(-c2nc3ncccn3c2NC2CCCCC2)cc1
false

Field: below-cutoff. Rule: recorded selectivity ratio strictly less than 20. Subject: CCNC(=O)CCCOc1ccc(-c2nc3ncccn3c2NC2CCCCC2)cc1
false

Field: below-cutoff. Rule: recorded selectivity ratio strictly less than 20. Subject: CCCCOc1ccc(-c2nc3ncccn3c2NC2CCCC2)cc1
false

Field: below-cutoff. Rule: recorded selectivity ratio strictly less than 20. Subject: Brc1ccc(-c2nc3ncccn3c2Nc2ccccc2)cc1
false

Field: below-cutoff. Rule: recorded selectivity ratio strictly less than 20. Subject: CCCCOc1ccc(-c2nc3ncccn3c2NC2CCCCC2)c(C)c1
false

Field: below-cutoff. Rule: recorded selectivity ratio strictly less than 20. Subject: CCCCOc1ccc(-c2nc3ncccn3c2Nc2ccccc2)cc1
true

----------
Test system: Influenza A virus
Measurement Description: Antiviral activity against group 2 influenza A H7N1 pseudotyped virus infected in A549 cells assessed as inhibition of viral entry incubated for 48 hrs by measuring luciferase activity by Neolite reporter gene assay
Format: functional, organism-based
Condition Context: H7N1, A549, 48 h
Recorded Metric: IC50

Reference set (5 entries):
CCCCOc1ccc(-c2nc3ncccn3c2N2C(=O)c3cccc(O)c3C2=O)cc1    15 µM
CCCCOc1ccc(-c2nc3ncccn3c2NC2CCCCCC2)cc1    0.44 µM
O=C(O)CCCOc1ccc(-c2nc3ncccn3c2NC2CCCCC2)cc1    0.18 µM
Cc1cc(Br)ccc1-c1nc2ncccn2c1NC1CCCCC1    0.17 µM
CCCCOc1ccc(-c2nc3ncccn3c2N)cc1    100 µM

Note: attention shifts to another entry.
Please report IC50 for the following molecule: CCCCOc1ccc(-c2nc3ncccn3c2NCc2ccco2)cc1
7.9 µM

----------
System: Influenza A virus
Measurement Description: Antiviral activity against group 2 influenza A H7N1 pseudotyped virus infected in A549 cells assessed as inhibition of viral entry incubated for 48 hrs by measuring luciferase activity by Neolite reporter gene assay
Type: functional, organism-based
Condition Context: H7N1, A549, 48 h
Field: IC50. Provide a value for each of the compounds that follow.

CCCCOc1ccc(-c2nc3ncccn3c2Nc2ccccc2)c(C)c1    4.5 µM

Respectfully, I request IC50 for each entry included below.
1. CCCCOc1ccc(-c2nc3ncccn3c2NC(C)(C)CC(C)(C)C)cc1
2. COCCOc1ccc(-c2nc3ncccn3c2Nc2ccccc2)cc1
3. Oc1cccc(-c2nc3ncccn3c2NC2CCCCC2)c1
4. Nc1nc2ncccn2c1-c1ccc(Br)cc1
5. CN(c1c(-c2ccc(F)cc2)nc2ncccn12)C1CCCCC1
6. Brc1ccc(-c2nc3ncccn3c2NC2CCCCC2)c(CN2CCOCC2)c1
7. COc1ccccc1-c1nc2ncccn2c1N(C(C)=O)C1CCCCC1

2.3 µM
5.2 µM
10 µM
100 µM
1.3 µM
9.9 µM
> 100 µM
